Experiment: Hepatic impairment study: atogepant plasma PK
Format: in vivo, human
Conditions: human, plasma, po, 60 mg, normal hepatic function, single 60 mg oral dose

>  <COMPOUND STRING>
C[C@@H]1[C@H](c2c(F)ccc(F)c2F)C[C@H](NC(=O)c2cnc3c(c2)C[C@@]2(C3)C(=O)Nc3ncccc32)C(=O)N1CC(F)(F)F

>  <MEASUREMENT UNITS>
min

>  <half-life>
564

$$$$

----------
Assay: Hepatic impairment study: atogepant plasma PK
Type: in vivo, human
Settings: human, plasma, po, 60 mg, severe hepatic impairment vs normal hepatic function; read-out: difference in median Tmax

>  <COMPOUND>
C[C@@H]1[C@H](c2c(F)ccc(F)c2F)C[C@H](NC(=O)c2cnc3c(c2)C[C@@]2(C3)C(=O)Nc3ncccc32)C(=O)N1CC(F)(F)F [atogepant]

>  <Tmax [min]>
45

$$$$

----------
Assay: Atogepant-rifampin drug interaction study: atogepant plasma PK
Type: in vivo, human
Conditions: both sexes, human, plasma, oral, 60 mg, Treatment A: atogepant 60 mg alone; read-out: AUC0-t
MEASURE NAME: AUC(0-t)

>  <COMPOUND>
C[C@@H]1[C@H](c2c(F)ccc(F)c2F)C[C@H](NC(=O)c2cnc3c(c2)C[C@@]2(C3)C(=O)Nc3ncccc32)C(=O)N1CC(F)(F)F [atogepant]

>  <REPORTED RESULT>
2960 ng·h/mL

$$$$

----------
Assay: Atogepant-rifampin drug interaction study: atogepant plasma PK
Format: in vivo, human
Conditions: both sexes, human, plasma, oral, Treatment B2: atogepant 60 mg + multiple-dose rifampin 600 mg; read-out: AUC0-t Geometric LSM, Test
MEASURE NAME: AUC(0-t) (ng·h/mL)

>  <COMPOUND>
C[C@@H]1[C@H](c2c(F)ccc(F)c2F)C[C@H](NC(=O)c2cnc3c(c2)C[C@@]2(C3)C(=O)Nc3ncccc32)C(=O)N1CC(F)(F)F [atogepant]

>  <MEASURE NAME>
AUC(0-t)

>  <REPORTED RESULT>
1120

$$$$

----------
Test: Atogepant-rifampin drug interaction study: atogepant plasma PK
Assay type: in vivo, human
Settings: both sexes, human, plasma, oral, Treatment B2: atogepant 60 mg + multiple-dose rifampin 600 mg; read-out: Cmax

>  <COMPOUND STRING>
C[C@@H]1[C@H](c2c(F)ccc(F)c2F)C[C@H](NC(=O)c2cnc3c(c2)C[C@@]2(C3)C(=O)Nc3ncccc32)C(=O)N1CC(F)(F)F

>  <Cmax / ng/mL>
487

$$$$

----------
Experiment: Hepatic impairment study: atogepant plasma PK
Type: in vivo, human
Settings: human, plasma, po, 60 mg, severe hepatic impairment, single 60 mg oral dose; read-out: Cmax

>  <COMPOUND STRING>
C[C@@H]1[C@H](c2c(F)ccc(F)c2F)C[C@H](NC(=O)c2cnc3c(c2)C[C@@]2(C3)C(=O)Nc3ncccc32)C(=O)N1CC(F)(F)F

>  <Cmax [ng/mL]>
525

$$$$

----------
Assay: Atogepant-topiramate interaction study, cohort 2: topiramate steady-state PK
Assay type: in vivo, human
Settings: both sexes, human, plasma, 100 mg, topiramate 100 mg BID alone, day 10; read-out: AUC0-tau,ss

>  <MOLECULE>
CC1(C)O[C@@H]2[C@@H](CO[C@@]3(COS(N)(=O)=O)OC(C)(C)O[C@@H]23)O1 [topiramate]

>  <MEASUREMENT UNITS>
ng·h/mL

>  <AUC>
76500

$$$$

----------
Assay: Hepatic impairment study: atogepant plasma PK
Format: in vivo, human
Conditions: human, plasma, po, 60 mg, mild hepatic impairment, single 60 mg oral dose

>  <COMPOUND>
C[C@@H]1[C@H](c2c(F)ccc(F)c2F)C[C@H](NC(=O)c2cnc3c(c2)C[C@@]2(C3)C(=O)Nc3ncccc32)C(=O)N1CC(F)(F)F [atogepant]

>  <half-life, h>
8.7

$$$$

----------
Experiment: Hepatic impairment study: atogepant plasma protein binding
Assay type: in vitro ADME, human
Conditions: human, plasma, oral, 60 mg, mild-impaired, 2 hr post dose; read-out: plasma protein binding, percent bound (converted)

>  <COMPOUND STRING>
C[C@@H]1[C@H](c2c(F)ccc(F)c2F)C[C@H](NC(=O)c2cnc3c(c2)C[C@@]2(C3)C(=O)Nc3ncccc32)C(=O)N1CC(F)(F)F

>  <fraction unbound at 2 h>
0.026

$$$$

----------
Experiment: Atogepant-esomeprazole drug interaction study: atogepant PK
Type: in vivo, human
Conditions: human, plasma, oral, atogepant 60 mg coadministered with esomeprazole 40 mg; read-out: median plasma atogepant tmax
MEASURE NAME: Tmax (h)

>  <COMPOUND STRING>
C[C@@H]1[C@H](c2c(F)ccc(F)c2F)C[C@H](NC(=O)c2cnc3c(c2)C[C@@]2(C3)C(=O)Nc3ncccc32)C(=O)N1CC(F)(F)F

>  <MEASURE NAME>
Tmax

>  <MEASUREMENT UNITS>
h

>  <REPORTED RESULT>
3

$$$$

----------
Test: Hepatic impairment study: atogepant plasma PK
Assay type: in vivo, human
Settings: human, plasma, oral, 60 mg, moderate hepatic impairment; read-out: AUC0-t Geometric Least Squares Mean, Test
MEASURE NAME: AUC(0-t)

>  <COMPOUND STRING>
C[C@@H]1[C@H](c2c(F)ccc(F)c2F)C[C@H](NC(=O)c2cnc3c(c2)C[C@@]2(C3)C(=O)Nc3ncccc32)C(=O)N1CC(F)(F)F

>  <MEASURE NAME>
AUC(0-t)

>  <REPORTED RESULT>
2980 ng·h/mL

$$$$

----------
Assay: Atogepant-rifampin drug interaction study: atogepant plasma PK
Format: in vivo, human
Conditions: both sexes, human, plasma, oral, Treatment B1: atogepant 60 mg + single-dose rifampin 600 mg; read-out: Tmax (median)
MEASURE NAME: Tmax

>  <COMPOUND STRING>
C[C@@H]1[C@H](c2c(F)ccc(F)c2F)C[C@H](NC(=O)c2cnc3c(c2)C[C@@]2(C3)C(=O)Nc3ncccc32)C(=O)N1CC(F)(F)F

>  <MEASURE NAME>
Tmax

>  <REPORTED RESULT>
2 h

$$$$

----------
Assay: Atogepant-topiramate interaction study, cohort 1: atogepant steady-state PK
Format: in vivo, human
Conditions: both sexes, human, plasma, Atogepant and Topiramate; read-out: AUC0-tau,ss Geometric LSM

>  <COMPOUND STRING>
C[C@@H]1[C@H](c2c(F)ccc(F)c2F)C[C@H](NC(=O)c2cnc3c(c2)C[C@@]2(C3)C(=O)Nc3ncccc32)C(=O)N1CC(F)(F)F

>  <MEASUREMENT UNITS>
ng·h/mL

>  <AUC>
2030

$$$$

----------
Assay: Atogepant-itraconazole drug interaction study: atogepant plasma PK
Type: in vivo, human
Settings: both sexes, human, plasma, oral; Treatment B: atogepant 60 mg + steady state itraconazole 200 mg

>  <MOLECULE>
C[C@@H]1[C@H](c2c(F)ccc(F)c2F)C[C@H](NC(=O)c2cnc3c(c2)C[C@@]2(C3)C(=O)Nc3ncccc32)C(=O)N1CC(F)(F)F [atogepant]

>  <Cmax [ng/mL]>
1580

$$$$

----------
Experiment: Atogepant-topiramate interaction study, cohort 1: atogepant steady-state PK
Type: in vivo, human
Details: both sexes, human, plasma, 60 mg, Atogepant Alone; read-out: AUC0-tau,ss Geometric LSM
MEASURE NAME: AUC

>  <COMPOUND STRING>
C[C@@H]1[C@H](c2c(F)ccc(F)c2F)C[C@H](NC(=O)c2cnc3c(c2)C[C@@]2(C3)C(=O)Nc3ncccc32)C(=O)N1CC(F)(F)F

>  <MEASURE NAME>
AUC

>  <REPORTED RESULT>
2720 ng·h/mL

$$$$

----------
Test: Atogepant-topiramate interaction study, cohort 2: topiramate steady-state PK
Type: in vivo, human
Conditions: both sexes, human, plasma, 100 mg, topiramate 100 mg BID alone, day 10; read-out: Cmax,ss

>  <COMPOUND>
CC1(C)O[C@@H]2[C@@H](CO[C@@]3(COS(N)(=O)=O)OC(C)(C)O[C@@H]23)O1 [topiramate]

>  <Cmax>
7700 ng/mL

$$$$

----------
Experiment: Hepatic impairment study: atogepant plasma PK
Assay type: in vivo, human
Settings: human, plasma, po, 60 mg, moderate hepatic impairment, single 60 mg oral dose; read-out: AUC0-t

>  <COMPOUND STRING>
C[C@@H]1[C@H](c2c(F)ccc(F)c2F)C[C@H](NC(=O)c2cnc3c(c2)C[C@@]2(C3)C(=O)Nc3ncccc32)C(=O)N1CC(F)(F)F

>  <AUC(0-t) / ng·h/mL>
3270

$$$$

----------
Assay: Atogepant-itraconazole drug interaction study: atogepant plasma PK
Type: in vivo, human
Settings: both sexes, human, plasma, oral, 60 mg, Treatment A: atogepant 60 mg single dose alone, fasted; read-out: Tmax (median)

>  <COMPOUND STRING>
C[C@@H]1[C@H](c2c(F)ccc(F)c2F)C[C@H](NC(=O)c2cnc3c(c2)C[C@@]2(C3)C(=O)Nc3ncccc32)C(=O)N1CC(F)(F)F

>  <Tmax [h]>
2

$$$$
